Source: PubChem BioAssay (NCI)

System: NCI-H226 lung
Experiment: NCI-60 one-dose screen, 48 h
Conditions: 10 µM
This is part of a sample that, as a whole, favours compounds with a hit. Of some 83,000 tested, about 20% had one in any assay. Active and inactive are the calls of the source. The calls were made as follows: active = growth percent below 10; inactive = the rest.
Respond with a class label; see true (1) = active, false (0) = inactive

Req: // return assay outcome for CC[C@@]12CC(C(=O)OC)=C3Nc4cc5c(cc4[C@@]34CCN(C[C@H]3O[C@H]31)[C@@H]24)[C@@H]1[C@H](O5)[C@@H](O)[C@@]2(CC)CC(C(=O)OC)=C3Nc4cc(OC)ccc4[C@@]34CCN1[C@@H]24
Resp: true (1)

Req: // return assay outcome for CC[C@]12C=CCN3CC[C@@]4(c5ccc(OC)cc5N(C)[C@H]4[C@@](O)(C(=O)OC)[C@@H]1OC(=O)CCCC[P+](C1CCCCC1)(C1CCCCC1)C1CCCCC1)[C@@H]32
Resp: true (1)

Req: // return assay outcome for O=C(/C=C/c1ccccc1)c1nc2ccccc2n1Cc1ccc(Br)cc1
Resp: true (1)

Req: // return assay outcome for C=CCN=C([Se])NC(=O)c1ccc2c(c1)OCO2
Resp: false (0)

Req: // return assay outcome for COC(=O)c1ccc(-n2cc(CCCN(CCNc3ccnc4cc(Cl)ccc34)C(=O)CCC(=O)O[C@@H]3O[C@@H]4OC5(C)CC[C@H]6[C@H](C)CC[C@@H]([C@H]3C)[C@@]46OO5)nn2)cc1
Resp: false (0)

Req: // return assay outcome for O=C(/C=C/c1ccccc1)c1nc2ccccc2n1Cc1ccc(F)cc1
Resp: true (1)

Req: // return assay outcome for C#CCCCN(CCNc1ccnc2cc(Cl)ccc12)C(=O)CCC(=O)O[C@@H]1O[C@@H]2OC3(C)CC[C@H]4[C@H](C)CC[C@@H]([C@H]1C)[C@@]24OO3
Resp: false (0)

Req: // return assay outcome for C[C@H]1[C@@H](Oc2ccc(-c3cn(-c4ccnc5cc(Cl)ccc45)nn3)cc2)O[C@@H]2OC3(C)CC[C@H]4[C@H](C)CC[C@@H]1[C@@]24OO3
Resp: false (0)

Req: // return assay outcome for O=C(/C=C/c1ccc(Cl)cc1Cl)c1nc2ccccc2n1Cc1ccc(F)cc1
Resp: false (0)

Req: // return assay outcome for COc1cc(OC)c(S(=O)(=O)N(CCCl)CCCl)cc1C(=O)/C=C/c1cc(OC)c(OC)c(OC)c1
Resp: true (1)

Req: // return assay outcome for COc1ccc(OC)c(/C=C/C(=O)c2nc3ccccc3n2Cc2ccc(F)cc2)c1
Resp: true (1)

Req: // return assay outcome for C=CC[Se]C(=O)c1cncc(C(=O)[Se]CC=C)c1
Resp: true (1)

Req: // return assay outcome for CCOP(=O)(CC(F)(F)C(F)(F)F)OCC
Resp: true (1)

Req: // return assay outcome for CC1=C(COCCOC(=O)c2ccc(S(=O)(=O)F)cc2)C2=C(C)C3(CC3)[C@@](C)(O)C(=O)C2=C1
Resp: true (1)

Req: // return assay outcome for O=C(/C=C/c1ccco1)c1nc2ccccc2n1Cc1ccc(F)cc1
Resp: false (0)

Req: // return assay outcome for COc1cc(OC)c(/C=C/C(=O)c2nc3ccccc3n2Cc2ccc(F)cc2)c(OC)c1
Resp: false (0)

* * *

Test system: MDA-MB-435 melanoma
Assay: NCI-60 one-dose screen, 48 h
Settings: 10 µM
About 83,000 compounds went through this panel and 20% of them were active in at least one assay; those are over-represented in the sample as a whole. Active and inactive are the calls of the source. Rule for the calls: active = growth percent below 10; inactive = the rest.
Respond with a class label; see active, inactive

Req: // return assay outcome for C[C@H]1[C@H](OC(=O)CCC(=O)Nc2cnccn2)O[C@@H]2OC3(C)CC[C@H]4[C@H](C)CC[C@@H]1[C@@]24OO3
Resp: inactive

Req: // return assay outcome for COC(=O)CCn1c(-c2ccc(-n3cc(-c4ccc(O[C@H]5O[C@@H]6OC7(C)CC[C@H]8[C@H](C)CC[C@@H]([C@H]5C)[C@@]68OO7)cc4)nn3)cc2)nc2ccccc21
Resp: inactive

Req: // return assay outcome for CC[C@]12C=CCN3CC[C@@]4(c5ccc(OC)cc5N(C)[C@H]4[C@@](O)(C(=O)OC)[C@@H]1OC(=O)CCCC[P+](C1CCCCC1)(C1CCCCC1)C1CCCCC1)[C@@H]32
Resp: active

* * *

Can you tell me growth for the items I'm about to list?
Tested on: KM12 colon
Assay: NCI-60 one-dose screen, 48 h (100 = growth as untreated, 0 = no growth, -100 = all killed)
Details: 10 µM
Method: Growth inhibition of the KM12 human tumor cell line is measured as a screen for anti-cancer activity. Cells are grown in 96 well plates and exposed to the test compound for 48 hours. Compounds are tested at a single concentration, which is 10^-5 M for most compounds. The reported endpoint is percent growth (GI% or GIPRCNT), where numbers from 0 - 100% represent growth inhibition, and numbers from -100% - 0 represent cell death. For example, a value of 40 represents 60% growth inhibition. […]
The panel holds about 83,000 compounds, 20% with a hit somewhere; the sample as a whole holds those more often.
Please respond with the number in % and leave the unit unwritten.

Req: What growth appears in the records for this compound with KM12 colon? COC(=O)C[C@](O)(CCC(C)C)C(=O)O[C@H]1C(OC)=C[C@@]23CCCN2CCc2cc4c(cc2[C@@H]13)OCO4
Resp: -22.3

Req: What growth appears in the records for this compound with KM12 colon? CC[C@@]12CC(C(=O)OC)=C3Nc4cc5c(cc4[C@@]34CCN(C[C@H]3O[C@H]31)[C@@H]24)[C@@H]1[C@H](O5)[C@@H](O)[C@@]2(CC)CC(C(=O)OC)=C3Nc4cc(OC)ccc4[C@@]34CCN1[C@@H]24
Resp: 10.2

Req: What growth appears in the records for this compound with KM12 colon? CCOP(=O)(OCC)C(NC(C)=O)C(=O)SCCN (configuration not stated)
Resp: 112

Req: What growth appears in the records for this compound with KM12 colon? CN(C)CCc1cn(C2CCC2)c2cccc(O)c12
Resp: 76.1

Req: What growth appears in the records for this compound with KM12 colon? O=C(/C=C/c1ccco1)c1nc2ccccc2n1Cc1ccc(Br)cc1
Resp: 20.7

Req: What growth appears in the records for this compound with KM12 colon? C#CCCCN(CCNc1ccnc2cc(Cl)ccc12)C(=O)CCC(=O)O[C@@H]1O[C@@H]2OC3(C)CC[C@H]4[C@H](C)CC[C@@H]([C@H]1C)[C@@]24OO3
Resp: 27.7

Req: What growth appears in the records for this compound with KM12 colon? CC[C@]12C=CCN3CC[C@@]4(c5ccc(OC)cc5N(C)[C@H]4[C@@](O)(C(=O)OC)[C@@H]1OC(=O)CCCC[P+](c1ccc(OC)cc1)(c1ccc(OC)cc1)c1ccc(OC)cc1)[C@@H]32
Resp: -68.8

* * *

System: MDA-MB-468 breast
Assay: NCI-60 one-dose screen, 48 h (100 = growth as untreated, 0 = no growth, -100 = all killed)
Details: 10 µM unless noted
The panel holds about 83,000 compounds, 20% with a hit somewhere; the sample as a whole holds those more often.
One threshold, 60%, splits the recorded growth values: lower ones are yes, equal or higher ones are no.

Req: Just wondering, is growth of CC(=O)N(C)C1=Nc2ccc(Cl)cc2C(c2ccccc2)=[N+]([O-])C1 below 60%?
Resp: no

Req: Just wondering, is growth of COc1ccc(/C=C(/C(=O)N2CCCC2)c2cc(OC)c(OC)c(OC)c2)cc1N below 60%?
Resp: yes

Req: Just wondering, is growth of CC(=O)C1C(=O)N(C)C(=O)N(C)C1=O below 60%?
Resp: no

Req: Just wondering, is growth of CC(=O)C(c1c(O)c2ccccc2oc1=O)c1cc(=O)oc2c1ccc1ccccc12 (stereo not given) below 60%?
Resp: no

Req: Just wondering, is growth of COc1cc([N+](=O)[O-])c2ncccc2c1[N+](=O)[O-] below 60%?
Resp: yes

Req: Just wondering, is growth of CC1(C)N=C(N)N=C(N)N1c1ccc(CCCCc2ccc(S(=O)(=O)F)cc2)c(Cl)c1 below 60%?
Resp: yes

Req: Just wondering, is growth of O=NNc1ccccn1 below 60%?
Resp: no

Req: Just wondering, is growth of CCCC1CCCCC12C(=O)NC(=O)NC2=O (stereo not given) below 60%?
Resp: no

Req: Just wondering, is growth of Cc1cc(-c2nc3cc(F)ccc3[se]2)cc(F)c1N below 60%?
Resp: yes

Req: Just wondering, is growth of Nc1ccc2c(c1)Cc1cc(N)ccc1-2 below 60%?
Resp: no

Req: Just wondering, is growth of C/C(=C\c1ccn(-c2ccc(N)cc2)n1)[C@@H]1C[C@@H]2O[C@]2(C)CCC[C@H](C)[C@H](O)[C@@H](C)C(=O)C(C)(C)[C@@H](O)CC(=O)O1 below 60%?
Resp: yes

Req: Just wondering, is growth of Cc1cc(NC(=O)NCCOc2ccc(N3C(N)=NC(N)=NC3(C)C)cc2Cl)ccc1S(=O)(=O)F below 60%?
Resp: yes

Req: Just wondering, is growth of Nc1cccc(CC(=O)Nc2ccc(S(=O)(=O)F)cc2)c1 below 60%?
Resp: no

Req: Just wondering, is growth of CN1CCC(c2c[nH]c3ccccc23)C1 (stereo not given) below 60%?
Resp: no

Req: Just wondering, is growth of CC(=O)O[C@H](C[C@H](C(C)C)N(C)C(=O)[C@@H](NC(=O)[C@H]1CCCN1C)C(C)C)c1nc(C(=O)N[C@@H](Cc2ccccc2)C[C@H](C)C(=O)O)c(C)s1 below 60%?
Resp: yes

Req: Just wondering, is growth of NC(Cc1ccc(O)cc1)C(=O)N/N=C/c1ccc(N(CCCl)CCCl)cc1 (stereo not given) below 60%?
Resp: yes

Req: Just wondering, is growth of O=C(O)CNCP(=O)(O)O below 60%?
Resp: no

Req: Just wondering, is growth of O=C(CCl)Nc1ccc(Cl)cc1 below 60%?
Resp: yes

Req: Just wondering, is growth of COC(C)(C)CCC[C@H](C)C/C=C/C(C)=C/C(=O)OC(C)C below 60%?
Resp: no

Req: Just wondering, is growth of COc1cc(N(CCCl)CCCl)ccc1C=Nc1ccccc1C(=O)O below 60%?
Resp: no

Req: Just wondering, is growth of COc1ccc2c(ccc3oc([N+](=O)[O-])cc32)c1 below 60%?
Resp: yes

Req: Just wondering, is growth of COc1cc(C2(C#N)CCN(C)CC2)cc(OC)c1OC below 60%?
Resp: no

Req: Just wondering, is growth of Cc1cc(N(CCCl)CCCl)ccc1C=Nc1ccccc1-c1ccccc1 below 60%?
Resp: yes

Req: Just wondering, is growth of O=C(/C=C/c1ccccc1Cl)c1nc2ccccc2n1Cc1ccc(F)cc1 below 60%?
Resp: yes

Req: Just wondering, is growth of O=C(N/N=C/c1ccc(N(CCCl)CCCl)cc1)c1cccc2ccccc12 below 60%?
Resp: yes

Req: Just wondering, is growth of COC(=O)C1=CO[C@@H](C)[C@@H]2CN3CCc4c([nH]c5cc(OC)ccc45)[C@@H]3C[C@H]12 below 60%?
Resp: no

Req: Just wondering, is growth of O=C1NC(=O)C(CN2C(=O)C3(c4ccccc42)[C@H](Cl)C(=O)N3c2ccccc2)C(=O)N1 (stereo not given in full) below 60%?
Resp: yes

Req: Just wondering, is growth of N/C(=N\N=C\c1ccc(-c2ccccc2)cc1)N[N+](=O)[O-] below 60%?
Resp: yes

Req: Just wondering, is growth of COC(=O)[C@H](Cc1ccccc1)NC(=O)c1csc([C@@H](C[C@H](C(C)C)N(C)C(=O)[C@@H](NC(=O)[C@H]2CCCCN2C)C2CC2)OC(C)=O)n1 below 60%?
Resp: yes

Req: Just wondering, is growth of O=C1C2CCC1C(N1CCCC1)CC2 (stereo not given) below 60%?
Resp: no

Req: Just wondering, is growth of CCC1(CCSC#N)C(=O)NC(=O)NC1=O below 60%?
Resp: no

Req: Just wondering, is growth of N#Cc1ncc(/N=C/c2ccc(N(CCCl)CCCl)cc2)s1 below 60%?
Resp: yes

Req: Just wondering, is growth of CCCCCCCCCCCCCC[P+](CCCCCC)(CCCCCC)CCCCCC below 60%?
Resp: yes

Req: Just wondering, is growth of N#C[Se]CCN1C(=O)C2C(C1=O)[C@H]1C=C[C@@H]2S1 (stereo not given in full) below 60%?
Resp: yes

Req: Just wondering, is growth of Cc1ccc(NC(=O)CBr)cc1 below 60%?
Resp: no

Req: Just wondering, is growth of C[CH2][Hg][S]c1ccccc1C(=O)O below 60%?
Resp: yes

Req: Just wondering, is growth of O=C(Nc1ccncc1F)c1cn(CC2CC2)c2ccccc12 below 60%?
Resp: no

Req: Just wondering, is growth of COC(=O)[C@@H](C)C[C@H](Cc1ccccc1)NC(=O)c1csc([C@@H](C[C@H](C(C)C)N(C)C(=O)[C@@H](NC(=O)[C@H]2CCCCN2C)c2ccc(F)cc2)OC(C)=O)n1 below 60%?
Resp: yes

Req: Just wondering, is growth of COc1cccc(/C=C/[N+](=O)[O-])c1 below 60%?
Resp: yes

Req: Just wondering, is growth of CC[C@H](C)[C@H]1O[C@]2(C=C[C@@H]1C)C[C@@H]1C[C@@H](C/C=C(\C)[C@@H](O[C@H]3C[C@H](OC)[C@@H](O[C@H]4C[C@H](OC)[C@@H](NC)[C@H](C)O4)[C@H](C)O3)[C@@H](C)/C=C/C=C3\CO[C@@H]4[C@H](O)C(C)=C[C@@H](C(=O)O1)[C@]34O)O2 below 60%?
Resp: yes
